This collection of values is drawn from PubChem BioAssay (NCATS).

System: JEG-3
procedure-details: Primary qHTS to identify gynecologic anti-cancer compounds using libraries of approved drugs and bioactive compounds (AID 1345084); also: % is scaled to controls: 0 for no effect and ±100 for the full control effect; nearly all actives have a fitted effect of over 55% in size
condition-set: Gynecologic cancer cell panel viability, ATPlite luminescence, 48 h; series mostly up to 57.5 µM
Records with an inconclusive call do not appear. Calls of active or inactive are those of the source. Calls follow the shape of the dose curve; as a rule, active = well fitted cell-killing curve with a large enough effect; inconclusive = small, poorly fitted or top-dose-only effect, or effect the other way; inactive = flat fitted curve, though single readings scatter.

# compound, activity change, negative = cytotoxicity
data = [
    ("COc1cc2ncnc(Nc3ccc(F)c(Cl)c3)c2cc1O", "inactive"),
    ("CC(=O)O[C@H]1CC(C)(C)CC2[C@]13CO[C@@]21CCC2[C@@]4(C)CC[C@H](O[C@@H]5OC[C@H](O[C@@H]6O[C@H](CO)[C@@H](O)[C@H](O)[C@H]6O[C@@H]6OC[C@@H](O)[C@H](O)[C@H]6O)[C@H](O)[C@H]5O[C@@H]5O[C@H](CO)[C@@H](O)[C@H](O)[C@H]5O)[C@@](C)(CO)C4CC[C@@]2(C)[C@]1(C)C[C@H]3O (some centres not stated)", "-9.1% [at 11.6 µM] (inactive)"),
    ("COc1cc(/C=C2\\CC[C@H]3COC[C@@H](c4cc(F)c(F)c(F)c4)N3C2=O)ccc1-n1cnc(C)c1", "inactive"),
    ("CC(=O)C1=C(O)C=C2Oc3c(C(C)=O)c(O)c(C)c(O)c3[C@]2(C)C1=O", "inactive"),
    ("CC(=O)OC1CC(C)C2(CCC3(CC(=O)OC3O)O2)C2(C)CCCC(C)(C)C12 (configuration not stated)", "inactive"),
    ("COC(=O)N1CCC(n2ncc3c(N4CCOCC4)nc(-c4ccc(NC(=O)NC5CC5)cc4)nc32)CC1", "inactive"),
    ("COc1cc(/C=N\\NC(=O)c2ccc3c(c2)OCO3)ccc1OCc1ccccc1", "inactive"),
]
